System: Enterococcus faecalis
protocol.text: Concentration (IC50) to inhibit the growth of Streptococcus faecalis.
Assay type: functional, organism-based
measurement.label: IC50 (µg/mL)

1) CC(C)CC(NC(=O)C(C)N)P(=O)(O)O (stereo unspecified)	90
2) CC(C)CC(N)C(=O)NC(C(C)C)P(=O)(O)O (stereo unspecified)	410
3) CC(C)CC(N)C(=O)NC(C)P(=O)(O)O (stereo unspecified)	2
4) CC(=O)OCC(NC(=O)C(C)N)P(=O)(O)O (stereo unspecified)	512
5) CC(C)CC(N)C(=O)N1CCCC1P(=O)(O)O (stereo unspecified)	42

---

System: Escherichia coli
protocol.text: Concentration (IC50) to inhibit the growth of Escherichia coli.
Type: functional, organism-based
measurement.label: IC50

1) CC(C)CC(N)C(=O)NC(Cc1ccccc1)P(=O)(O)O (stereo unspecified)	> 512 mg/L
2) CC(C)CC(N)C(=O)NC(C1CCC1)P(=O)(O)O (stereo unspecified)	> 512 mg/L
3) CC(N)C(=O)NC(CCC(=O)O)P(=O)(O)O (stereo unspecified)	5.6 mg/L
4) CC(N)C(=O)NC(C12CC3CC(CC(C3)C1)C2)P(=O)(O)O (stereo unspecified)	> 512 mg/L
5) CC(C)CC(N)C(=O)NC(C)(C)P(=O)(O)O (stereo unspecified)	35 mg/L
6) CC(N)C(=O)NC(C1CCCC1)P(=O)(O)O (stereo unspecified)	> 512 mg/L
7) CC(N)C(=O)NC(C1CCC1)P(=O)(O)O (stereo unspecified)	> 512 mg/L
8) CC(N)C(=O)NC(C(C)(C)C)P(=O)(O)O (stereo unspecified)	> 512 mg/L
9) CC(N)C(=O)N1CCCC1P(=O)(O)O (stereo unspecified)	> 512 mg/L
10) CC(C)CC(N)C(=O)NC(C(C)C)P(=O)(O)O (stereo unspecified)	282 mg/L
11) COc1ccc(CC(NC(=O)C(N)CC(C)C)P(=O)(O)O)cc1OC (stereo unspecified)	> 512 mg/L
12) CC(C)CC(N)C(=O)NC(CC(C)C)P(=O)(O)O (stereo unspecified)	307 mg/L
13) CC(C)CC(N)C(=O)NC(C1CCCCC1)P(=O)(O)O (stereo unspecified)	> 512 mg/L
14) CC(=O)OCC(NC(=O)C(N)CC(C)C)P(=O)(O)O (stereo unspecified)	> 512 mg/L
15) CC(N)C(=O)NC(C1CCCCC1)P(=O)(O)O (stereo unspecified)	> 512 mg/L
16) CC(C)CC(NC(=O)C(C)N)P(=O)(O)O (stereo unspecified)	> 512 mg/L
17) CC(=O)OCC(NC(=O)C(C)N)P(=O)(O)O (stereo unspecified)	> 512 mg/L
18) COc1ccc(CC(NC(=O)C(C)N)P(=O)(O)O)cc1OC (stereo unspecified)	> 512 mg/L
19) CC(C)CC(N)C(=O)NC1(P(=O)(O)O)CCCCC1 (stereo unspecified)	> 512 mg/L
20) CC(C)CC(N)C(=O)N1CCCC1P(=O)(O)O (stereo unspecified)	70 mg/L
21) CC(C)CC(N)C(=O)NC(CCC(=O)O)P(=O)(O)O (stereo unspecified)	18 mg/L
22) CC(N)C(=O)NC(C1CC1)P(=O)(O)O (stereo unspecified)	> 512 mg/L
23) CC(C)CC(N)C(=O)NC(C)P(=O)(O)O (stereo unspecified)	0.09 mg/L
24) CC(C)CC(N)C(=O)NC(C1CC1)P(=O)(O)O (stereo unspecified)	> 512 mg/L
25) CC(N)C(=O)NC(C)(C)P(=O)(O)O (stereo unspecified)	5.6 mg/L
26) CC(N)C(=O)NC1(P(=O)(O)O)CCCCC1 (stereo unspecified)	> 512 mg/L
